System: CAKI-1 renal
Assay: NCI-60 one-dose screen, 48 h (100 = growth as untreated, 0 = no growth, -100 = all killed)
Details: 10 µM
About 83,000 compounds went through this panel and 20% of them were active in at least one assay; those are over-represented in the sample as a whole. Calls of active or inactive are those of the source. Rule for the calls: active = growth percent below 10; inactive = the rest.
Kindly state growth for each of the entries shown.

[
  {
    "Molecule": "NC(=O)c1cccc(-n2ccc3cc(NC(=O)Nc4ccc(Cl)c(C(F)(F)F)c4)ccc32)n1",
    "Test target": "CAKI-1 renal",
    "growth": "61% (inactive)"
  }
]

Could I get growth for every one of these entries?
1. CC(=O)N[C@H](C(=O)N[C@@H](CCCNC(=N)N)C(=O)N[C@@H](CCCCN)C(=O)N[C@@H](CCCNC(=N)N)C(=O)N[C@]1(C)CCC/C=C\CCC[C@@](C)(C(=O)N[C@@H](CC(C)C)C(=O)N[C@@H](CC(C)C)C(=O)N[C@@H](CCC(N)=O)C(=O)N[C@@H](CCC(=O)O)C(=O)N[C@@H](CCCNC(=N)N)C(=O)N[C@@H](CCC(=O)O)C(=O)N[C@@H](CC(C)C)C(=O)N[C@H](C(=O)N[C@@H](CCC(=O)O)C(N)=O)C(C)C)NC(=O)[C@H](CCCNC(=N)N)NC(=O)[C@H](CC(C)C)NC1=O)C(C)C
2. CC(C)(C)OC(=O)CN1CCc2c(sc3ncnc(N/N=C/c4cccc5ccccc45)c23)C1
3. Cc1ccc(C(=O)C2C(=O)C3CCC2C3)cc1 (centres undefined)

1: 98.9% (inactive); 2: 35.1% (inactive); 3: 96.1% (inactive)

Data provenance is PubChem BioAssay (NCI).
